Ref: patent US4432973A

# measurement.notes: Acute toxicity in the mouse by the I.P. route
# Format: in vivo
# assay.setup: in vivo, ip, I.P., read-out: DL-50 (lethal dose involving the death of half of the animals)
Classes by LD50: lower level (below 600 mg/kg), middle level (600 mg/kg to below 800 mg/kg), upper level (800 mg/kg or more)

Examples with answers:
- compound: "Cc1cc(C(=O)c2ccc([N+](=O)[O-])cc2)cc(C)c1O[C@@H]1OC[C@@H](O)[C@H](O)[C@H]1O"
  assigned.category: "middle level"
- compound: "COc1ccc(C(=O)c2ccc(O[C@@H]3OC[C@@H](O)[C@H](O)[C@H]3O)cc2)cc1"
  assigned.category: "upper level"
- compound: "CC(=O)N[C@H]1[C@H](Oc2ccc(C(=O)c3ccc(C)cc3)cc2)O[C@H](CO)[C@@H](O)[C@@H]1O"
  assigned.category: "middle level"
- compound: "Cc1cc(C(=O)c2ccccc2)cc([N+](=O)[O-])c1O[C@@H]1OC[C@@H](O)[C@H](O)[C@H]1O"
  assigned.category: "lower level"
- compound: "Cc1ccc(C(O)c2cccc(O[C@@H]3OC[C@@H](O)[C@H](O)[C@H]3O)c2)cc1 (single isomer, unassigned)"
  assigned.category: "lower level"

Incoming: Band assignment needed for `O=C(c1ccccc1)c1ccc(O[C@@H]2OC[C@@H](O)[C@H](O)[C@H]2O)cc1` please.
Outgoing: upper level

Incoming: Textbook exercise: identify the category of the compound given here, `O=C(c1ccc(O[C@@H]2OC[C@@H](O)[C@H](O)[C@H]2O)cc1)c1cccc(C(F)(F)F)c1` , according to its measured value.
Outgoing: lower level

Incoming: Exercise: read the entry `O=C(c1ccc(O[C@@H]2OC[C@@H](OS(=O)(=O)O)[C@H](OS(=O)(=O)O)[C@H]2OS(=O)(=O)O)cc1)c1cccc([N+](=O)[O-])c1` and state which class it falls under.
Outgoing: middle level

Incoming: Category of OC[C@H]1O[C@@H](Oc2ccc(C(O)c3ccc(Cl)cc3)cc2)[C@H](O)[C@@H](O)[C@@H]1O (stereo partly shown) :
Outgoing: middle level

Incoming: Where would OC(c1ccccc1)c1cccc(O[C@@H]2OC[C@@H](O)[C@H](O)[C@H]2O)c1 (stereo partly shown) land among the classes by reported LD50?
Outgoing: upper level

###

# measurement.notes: Anti-ulcer activity: ulcer caused by aspirin
# Format: in vivo, rat (male Wistar)
# assay.setup: 100 mg/kg I.P.; aspirin 192 mg/kg per os; standardised to control batch and cimetidine (index 1)
reported.metric: Ulcer index
Answer with the value's number alone.

- compound: "COc1ccc(C(=O)c2ccc(O[C@@H]3OC[C@@H](OC(C)=O)[C@H](OC(C)=O)[C@H]3OC(C)=O)cc2)cc1"
  Ulcer index: 0.64
- compound: "O=[N+]([O-])c1ccc(C(O)c2ccc(O[C@@H]3OC[C@@H](O)[C@H](O)[C@H]3O)cc2)cc1 (stereo partly drawn)"
  Ulcer index: 0.52
- compound: "O=C(c1ccccc1)c1cccc(O[C@@H]2OC[C@@H](O)[C@H](O)[C@H]2O)c1"
  Ulcer index: 1.11
- compound: "CC(=O)O[C@@H]1[C@@H](OC(C)=O)[C@H](Oc2ccc(C(=O)c3ccccc3C)cc2C)OC[C@H]1OC(C)=O"
  Ulcer index: 0.65
- compound: "OC(c1ccc(O[C@@H]2OC[C@@H](O)[C@H](O)[C@H]2O)cc1)c1ccccc1Cl (stereo partly drawn)"
  Ulcer index: 0.39

Incoming: Look up and state reported Ulcer index for OC(c1ccc(O[C@@H]2OC[C@@H](O)[C@H](O)[C@H]2O)cc1)c1ccc(Cl)cc1Cl (stereo partly drawn)
Outgoing: 0.50

###

# measurement.notes: Acute toxicity in the mouse by the I.P. route
# Assay type: in vivo
# assay.setup: in vivo, ip, I.P., read-out: DL-50 (lethal dose involving the death of half of the animals)
reported.metric: LD50

- compound: "Cc1cc(C(=O)c2ccccc2C)ccc1O[C@@H]1OC[C@@H](O)[C@H](O)[C@H]1O"
  value.reported: "> 550 mg/kg"

Incoming: Return LD50 for the following compound: OC(c1ccc(O[C@@H]2OC[C@@H](O)[C@H](O)[C@H]2O)cc1)c1ccc(Cl)cc1Cl (stereo partly drawn)
Outgoing: > 350 mg/kg

Incoming: Query LD50 for `Cc1ccccc1C(=O)c1cc(C)c(O[C@@H]2OC[C@@H](O)[C@H](O)[C@H]2O)c(C)c1`
Outgoing: 600 mg/kg
